- TARGET_DESC: T1, soluble mouse BLyS (mouse, UniProt Q9WU72 127-309)
- T1 construct: europium-labelled in DELFIA; also called mBLyS; mouse BAFF (BLyS)
- PROTOCOL_TEXT: DELFIA competition, Eu-mBLyS binding to coated BR3
TEST_READOUT: pIC50
Conceptually, pIC50 converts a concentration in mol/L into minus its log10.

response.value for 6C10 IgG expressed in HEK293 cells (antibody, V domains shown, IgG from HEK293-FreeStyle cells; also called 6C10 (293)) VH: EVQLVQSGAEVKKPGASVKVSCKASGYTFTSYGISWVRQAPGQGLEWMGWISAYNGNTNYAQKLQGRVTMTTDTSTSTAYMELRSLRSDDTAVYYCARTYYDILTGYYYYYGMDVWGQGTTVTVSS VL: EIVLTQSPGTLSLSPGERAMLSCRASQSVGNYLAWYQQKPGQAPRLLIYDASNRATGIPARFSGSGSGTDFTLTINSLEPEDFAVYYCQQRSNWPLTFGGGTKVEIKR (field: pIC50) = 9.11
